Target: Coagulation factor X (Homo sapiens)
Sequence (P00742 41-179 limits assumed): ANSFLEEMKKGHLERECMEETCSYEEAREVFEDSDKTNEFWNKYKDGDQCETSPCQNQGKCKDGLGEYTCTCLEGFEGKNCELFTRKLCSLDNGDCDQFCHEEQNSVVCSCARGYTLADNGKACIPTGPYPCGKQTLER
Sequence (P00742 235-488 limits assumed): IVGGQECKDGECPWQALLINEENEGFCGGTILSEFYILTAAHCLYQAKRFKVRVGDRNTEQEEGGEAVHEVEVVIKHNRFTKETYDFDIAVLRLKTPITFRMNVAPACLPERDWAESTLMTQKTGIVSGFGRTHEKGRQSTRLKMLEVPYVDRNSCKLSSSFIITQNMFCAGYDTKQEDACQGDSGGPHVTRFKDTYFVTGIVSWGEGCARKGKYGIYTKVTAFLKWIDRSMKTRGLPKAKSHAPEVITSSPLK
Endpoint label: pIC50
In textbook form, pIC50 equals minus log to base ten of the concentration in mol/L.

Some solved cases for reference:
>  <Molecule>
C[C@@H](C(=O)N1CCOCC1)N1CC[C@H](N(CC(N)=O)S(=O)(=O)c2cc3ccc(Cl)cc3s2)C1=O [GTC000026A]

>  <pIC50>
7.30

$$$$
>  <Molecule>
CCC(=O)CN([C@H]1CCN([C@@H](C)C(=O)N2CCOCC2)C1=O)S(=O)(=O)/C=C/c1ccc(Cl)cc1 [GTC000012A]

>  <pIC50>
7.22

$$$$
>  <Molecule>
C[C@@H](C(=O)N1CCOCC1)N1CC[C@H](N(c2ccccc2)S(=O)(=O)c2ccc3cc(Cl)ccc3c2)C1=O [GTC000033A]

>  <pIC50>
6.58

$$$$

# C[C@@H](C(=O)N1CCOCC1)N1CC[C@H](N(CC(N)=O)S(=O)(=O)/C=C/c2ccc(Cl)cc2)C1=O [GTC000030A] with Coagulation factor X (Homo sapiens): pIC50 is 7.27

# C[C@@H](C(=O)N1CCOCC1)N1CC[C@H](N(CC(=O)O)S(=O)(=O)c2ccc(-c3ccc(Cl)s3)s2)C1=O [GTC000016A] with Coagulation factor X (Homo sapiens): pIC50 is 7.62

# CCOC(=O)CN([C@H]1CCN([C@@H](C)C(=O)N2CCOCC2)C1=O)S(=O)(=O)c1ccc2cc(Cl)ccc2c1 [GTC000018A] with Coagulation factor X (Homo sapiens): pIC50 is 6.45

# C[C@@H](C(=O)N1CCOCC1)N1CC[C@H](N(CC(N)=O)S(=O)(=O)c2ccc(-c3ccc(Cl)s3)s2)C1=O [GTC000032A] with Coagulation factor X (Homo sapiens): pIC50 is 7.85

---

Heads up, these compounds all have pIC50 values measured for Coagulation factor X (Homo sapiens).
In textbook form, pIC50 equals minus log to base ten of the concentration in mol/L.

# CCC(=O)CN([C@H]1CCN([C@@H](C)C(=O)N2CCOCC2)C1=O)S(=O)(=O)c1cc2ccc(Cl)cc2s1 [GTC000025A] with Coagulation factor X (Homo sapiens): pIC50 is 7.57

---

Heads up, these compounds all have IC50 values measured for Coagulation factor X (Homo sapiens).
Output spec: scalar in nM, unitless text.

Some solved cases for reference:
>  <Compound>
C[C@@H](C(=O)N1CCOCC1)N1CC[C@H](N(CC(=O)O)S(=O)(=O)/C=C/c2ccc(Cl)cc2)C1=O [GTC000017A]

>  <Unit string>
nM

>  <IC50>
132

$$$$
>  <Compound>
C[C@@H](C(=O)N1C[C@@H]2C[C@H]1CO2)N1CC[C@H](N(CC(N)=O)S(=O)(=O)c2ccc3cc(Cl)ccc3c2)C1=O [GTC000039A]

>  <Unit string>
nM

>  <IC50>
97.3

$$$$

Record C[C@@H](C(=O)N1CCOCC1)N1CC[C@H](N(CC#N)S(=O)(=O)/C=C/c2ccc(Cl)cc2)C1=O [GTC000011A] , field IC50: 87.5

---

Biological target: Coagulation factor X (Homo sapiens)
We label by threshold. Values of IC50 strictly beneath 70 nM are MET. Values of 70 nM and up are NOT MET.

>  <Molecule>
C[C@@H](C(=O)N1CCOCC1)N1CC[C@H](N(Cc2cccnc2)S(=O)(=O)c2ccc3cc(Cl)ccc3c2)C1=O [GTC000015A]

>  <Label value>
MET

$$$$
>  <Molecule>
C[C@@H](C(=O)N1CCOCC1)N1CC[C@H](N(CC(N)=O)S(=O)(=O)c2cc3cc(Cl)ccc3s2)C1=O [GTC000031A]

>  <Label value>
NOT MET

$$$$
>  <Molecule>
C[C@@H](C(=O)N1CCOCC1)N1CC[C@H](N(c2cccnc2)S(=O)(=O)c2ccc3cc(Cl)ccc3c2)C1=O [GTC000037A]

>  <Label value>
NOT MET

$$$$
>  <Molecule>
CCN([C@H]1CCN([C@@H](C)C(=O)N2CCOCC2)C1=O)S(=O)(=O)c1ccc2cc(Cl)ccc2c1 [GTC000023A]

>  <Label value>
MET

$$$$
>  <Molecule>
C[C@@H](C(=O)N1CCOCC1)N1CC[C@H](N(c2ccsc2)S(=O)(=O)c2ccc3cc(Cl)ccc3c2)C1=O [GTC000036A]

>  <Label value>
NOT MET

$$$$

IC50 under 70 nM? Item: C[C@@H](C(=O)N1CCOCC1)N1CC[C@H](N(CCN2CCCC2)S(=O)(=O)c2ccc3cc(Cl)ccc3c2)C1=O [GTC000043A]
MET

IC50 under 70 nM? Item: C[C@@H](C(=O)N1CCOCC1)N1CC[C@H](N(CC#N)S(=O)(=O)c2ccc3cc(Cl)ccc3c2)C1=O [GTC000003A]
MET

IC50 under 70 nM? Item: COC(=O)CN([C@H]1CCN([C@@H](C)C(=O)N2CCOCC2)C1=O)S(=O)(=O)/C=C/c1ccc(Cl)cc1 [GTC000013A]
MET

IC50 under 70 nM? Item: Cc1nc(CN([C@H]2CCN([C@@H](C)C(=O)N3CCOCC3)C2=O)S(=O)(=O)c2ccc3cc(Cl)ccc3c2)cs1 [GTC000024A]
MET

IC50 under 70 nM? Item: C=CCN([C@H]1CCN([C@@H](C)C(=O)N2CCOCC2)C1=O)S(=O)(=O)c1ccc2cc(Cl)ccc2c1 [GTC000004A]
MET

IC50 under 70 nM? Item: CC(=O)NCCN([C@H]1CCN([C@@H](C)C(=O)N2CCOCC2)C1=O)S(=O)(=O)c1ccc2cc(Cl)ccc2c1 [GTC000041A]
MET

IC50 under 70 nM? Item: C[C@@H](C(=O)N1CCOCC1)N1CC[C@H](N(Cc2ccoc2)S(=O)(=O)c2ccc3cc(Cl)ccc3c2)C1=O [GTC000014A]
MET
